protocol.summary: Mouse PK test of peptides (intravenous and oral administration)
condition.details: male, C57BL/6J, in vivo, iv, 20 mg/kg
Positions of bridges follow the written chain, without caps; N, C: chain ends. Non-standard residues stand in square brackets, D forms with d. Residues, ends and D or L forms follow the SMILES beside them. *: point of attachment. NMeF = CN[C@@H](Cc1ccccc1)C(=O)O; NMeI = CC[C@H](C)[C@H](NC)C(=O)O; NMeL = CN[C@@H](CC(C)C)C(=O)O; NMeA = CN[C@@H](C)C(=O)O; Piperidide = C1CCN(*)CC1; NPrGly = CCCNCC(=O)O; tBu = CC(C)(C)*
measure: half-life (h)
Answer format: numeric, h implied, no suffix.

Query :: Output measured half-life for this item: CCCN1CC(=O)N(C)[C@@H](CC(C)C)C(=O)N[C@@H]([C@@H](C)O)C(=O)N(C)[C@@H](C)C(=O)N(C)[C@@H](CC(C)C)C(=O)N(C)[C@@H]([C@@H](C)CC)C(=O)N[C@@H](COC(C)(C)C)C(=O)N[C@H](C(=O)N2CCCCC2)CC(=O)N(C)[C@@H](C)C(=O)N(C)[C@@H](Cc2ccccc2)C1=O [DP-540] ([NMeA][NMeF][NPrGly][NMeL]T[NMeA][NMeL][NMeI]S(tBu)D-Piperidide; lactam N-10)
Result :: 1.63

These data points were gathered from patent US9409952B2.
